Source: ChEMBL document CHEMBL1201862

- Test system: LXFL 529
- ASSAY PROTOCOL: NCI tumour cell line growth inhibition, 48 h
Active and inactive are the calls of the source. Cut-off read from the data, not from the text of the source: active = GI50 up to about 1.1 µM and inactive = higher.
ATTRIBUTE MEASURED: GI50

INSERT INTO assay_data (compound, test_value) VALUES
  ('O=C1C(c2ccccc2)=C(c2ccccc2)C(c2ccc(CCCCCCc3ccc(C4=C(c5ccccc5)C(=O)C(c5ccccc5)=C4c4ccccc4)cc3)cc2)=C1c1ccccc1', '> 100 µM (inactive)');

Requested read-out: GI50. Entry: ClCCNCCNCCCl.ClCCNCCNCCCl.[O-][Cl+3]([O-])([O-])O
17.2 µM (inactive)

Requested read-out: GI50. Entry: N#C/N=C1\NC(Cc2ccccc2)C(=O)N1CCc1c[nH]c2ccccc12 (stereo not given)
30.1 µM (inactive)

Requested read-out: GI50. Entry: NC(=O)NNC(=O)CCn1[nH]c(=O)c(Cl)c(Cl)c1=O
> 100 µM (inactive)

Requested read-out: GI50. Entry: CCOC(=O)C(C#N)(Cc1c[nH]c2ccccc12)NC(C)=O (stereo not given)
> 100 µM (inactive)

Requested read-out: GI50. Entry: CC(C)(C)N/N=C(\C(=O)Nc1nnc(S)[nH]1)C1C(=O)Nc2ccccc2[S+]1[O-] (stereo not given)
> 100 µM (inactive)

Requested read-out: GI50. Entry: CC(C)NC(=O)OCc1nnn2c1C(OC(=O)NC(C)C)CC2 (stereo not given)
> 100 µM (inactive)

Requested read-out: GI50. Entry: [O-][S+]1C(=c2ccc(=C3Sc4ccccc4S3)cc2)Sc2ccccc21 (stereo not given)
51.2 µM (inactive)

Requested read-out: GI50. Entry: O=C1CCc2ccc(O)c(c2)Oc2ccc(cc2)[C@@H]2O[C@@H]2CO1
33.2 µM (inactive)

Requested read-out: GI50. Entry: CCN(c1ccc(Br)cc1)c1c(Br)c(=O)nc2ccccn12
> 100 µM (inactive)

====

- System: HOP-92
- ASSAY PROTOCOL: NCI tumour cell line growth inhibition, 48 h
The source made the active and inactive calls. No stated cut-off is given here; in the data, active = GI50 up to about 1.1 µM and inactive = higher.
Attribute: GI50

Example entries begin here.
INSERT INTO assay_data (molecule, test_value) VALUES
  ('CCc1nc(N)nc(N)c1-c1ccc(N2CCNCC2)c([N+](=O)[O-])c1', '27.4 µM (inactive)'),
  ('Cc1cc(/N=C2\C=C(Nc3cc(C)on3)C(=O)c3ccccc32)no1', '19 µM (inactive)'),
  ('COc1cc(-c2oc3ccccc3c(=O)c2O)cc(OC)c1OC', '4.06 µM (inactive)');

Requested read-out: GI50. Entry: CCN(CC)CCNC(=O)c1cc2cc(NC(=O)c3cc4cc(NC(=O)c5cc6cc([N+](=O)[O-])ccc6[nH]5)ccc4[nH]3)ccc2[nH]1
> 100 µM (inactive)

Requested read-out: GI50. Entry: O=c1[nH]c2nc[nH]c2c(=O)n1C1CCCCC1
> 100 µM (inactive)

Requested read-out: GI50. Entry: CCCC(O)c1cn(C(NC(=O)c2ccccc2)P(=O)(OCC)OCC)nn1 (stereo not given)
> 100 µM (inactive)

Requested read-out: GI50. Entry: O=c1ccn(C/C=C/c2ccccc2)c(=S)n1C/C=C/c1ccccc1
> 100 µM (inactive)

Requested read-out: GI50. Entry: CC1(c2cccc(C3CCC4(C=CC3=O)OCCO4)c2)OCCO1 (stereo not given)
5.81 µM (inactive)

Requested read-out: GI50. Entry: CN1CC(c2ccccc2)C(O)(C2(c3ccccc3)CN(C)CC(c3ccccc3)C2=O)C(c2ccccc2)C1 (stereo not given)
50.1 µM (inactive)

Requested read-out: GI50. Entry: CCOC(=O)c1nn2c(nc1=O)sc1ccc3ccccc3c12
> 100 µM (inactive)

Requested read-out: GI50. Entry: OCCSCc1ccccc1
> 100 µM (inactive)

Requested read-out: GI50. Entry: Cn1cnc2c(OCC3CCCCC3)nc(N)nc21
32.4 µM (inactive)

Requested read-out: GI50. Entry: Oc1nc2c(c(-c3ccc(Br)cc3)n1)COC/C2=C\c1ccc(Br)cc1
> 50 µM (inactive)

Requested read-out: GI50. Entry: CCCCCCCCCCCCCCCCNc1ccn(C2CC(O)C(COC(c3ccccc3)(c3ccccc3)c3ccc(OC)cc3)O2)c(=O)n1 (stereo not given)
> 100 µM (inactive)

Requested read-out: GI50. Entry: Cn1c(-c2cccs2)cc(-c2cccs2)c1-c1cccs1
> 100 µM (inactive)
